Target: Recombinant human Cbl-b (aa 36-427) (Homo sapiens, UniProt Q13191)
Sequence (Q13191 36-427): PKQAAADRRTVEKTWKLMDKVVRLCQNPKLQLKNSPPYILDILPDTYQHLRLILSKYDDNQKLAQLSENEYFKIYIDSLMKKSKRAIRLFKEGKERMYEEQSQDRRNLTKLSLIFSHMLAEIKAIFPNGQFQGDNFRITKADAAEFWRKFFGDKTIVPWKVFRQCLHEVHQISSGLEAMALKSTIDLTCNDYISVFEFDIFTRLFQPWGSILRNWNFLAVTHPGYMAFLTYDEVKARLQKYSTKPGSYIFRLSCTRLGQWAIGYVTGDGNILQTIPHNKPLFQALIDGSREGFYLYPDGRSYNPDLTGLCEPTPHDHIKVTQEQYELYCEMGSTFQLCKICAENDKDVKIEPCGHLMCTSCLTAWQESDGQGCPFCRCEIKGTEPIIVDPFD
Experiment: Cbl-b Biochemical Assay (TR-FRET)
Settings: read-out: TR-FRET hCbl-b IC50
endpoint.name: IC50

[Q] Fill in the blank: the reported IC50 of Cn1cnnc1CC1(c2cccc(-c3cc4cccc(C(F)(F)F)c4[nH]3)c2)COC1 is ____.
[A] 10000 to 50000 nM

[Q] Fill in the blank: the reported IC50 of Cn1cnnc1-c1cc(F)ccc1-c1cccc(-c2nc3cc(CNCC4CCC4)c(F)c(F)c3o2)c1 is ____.
[A] < 200 nM

[Q] Fill in the blank: the reported IC50 of C=Cc1cc(C(F)(F)F)c2oc(-c3cccc(-c4ccc(F)cc4-c4nncn4C)c3)nc2c1 (racemic) is ____.
[A] 200 to 1000 nM

[Q] Fill in the blank: the reported IC50 of Cn1cnnc1-c1cc(F)ccc1-c1cccc(-c2nc3cc(CNC[C@@]4(C)CCO4)cc(C(F)(F)F)c3o2)c1 is ____.
[A] < 200 nM

[Q] Fill in the blank: the reported IC50 of Cn1cnnc1-c1cc(F)ccc1-c1cccc(-c2nc3cc(CNCC(O)(C(F)(F)F)C(F)(F)F)cc(C(F)(F)F)c3o2)c1 is ____.
[A] < 200 nM

[Q] Fill in the blank: the reported IC50 of CO[C@H](C)[C@@H](C)NCc1cc(C)c2oc(-c3cc(-c4ccc(F)cc4-c4nncn4C)cc(C4CC4)n3)nc2c1 is ____.
[A] 200 to 1000 nM

[Q] Fill in the blank: the reported IC50 of Cn1cnnc1-c1cc(F)ccc1-c1cccc(-c2nc3cc(CNCC4(O)CCC4)ccc3o2)c1 is ____.
[A] < 200 nM

[Q] Fill in the blank: the reported IC50 of Cn1cnnc1-c1cc(F)ccc1-c1cccc(-c2cn3cc(CN[C@@H]4CCC[C@@H]4O)ccc3n2)c1 is ____.
[A] 1000 to 10000 nM
